assay: soluble on expression in E. coli; label from the status in PepcDB or PDB records
recorded-endpoint: soluble on expression in E. coli

MSLEPLAETYQALVLAVRDYVTKNGFHGAVLGLSGGIDSALTLAIAADAIGADKVQAVMMPFRYTAQMSVEDAKEQAERMGVEFNIISIEPMFEGFMAQLAPLFEGTARDTTEENLQARCRGVLLMALSNKRRCIVLTTGNKSEMAVGYATLYGDMAGGFDVLKDVPKTLVFKLCEYRNSVDYVIPQRVIDRPPSAELAPDQVDQDSLPPYDILDAILKRYVEEDASVADMVAEGFEEAVVRKVIRLVDLNEYKRRQAAVGPRITARNEGHHHHHH: not soluble
MVLLDNADRVVLLTEKERPRGRKIDISLTFLLPHDNWFSVEDGVSDHYFSRRGFLRASLLGVLCLRGIGSALATEFLEESYPVGRLSLRNIHTGEHLSVTYRTPDGEVDLDALNSINWLLRCHFTNQHTEMDLAVIEYLNMVDKVLGGGREFRIISGYRSPEYNRILSEHNGAVAKQSLHMEGKAIDIAVPGVSLAVLRDLAAGFRCGGVGYYPHSGFVHLDSGRFRTW: not soluble
GPGSMQTDFGDATTFSLRPDHKRKFRPNDIRPVVRSLLESRLENEVYKADEMQSISKEIADGVRDRIRSMELERYKIMVHCMIGEQRGQGLRAGCKMFWDSDTDDYFEEVYVTQHLFAVVTVFGLYQY: not soluble
GPGSMEEDLAYKIIVIGSVSVGKSNITSRFCDGAFYPDLVPTLGMDFKYSSCNTLEKRPRCVRLQVWDTSGQDDFVTLTTAFYRNCQGALLCFDLTNRQSFEDLDQWYERLERYSPVVPPLILVGCKLDLVESHLDEQGEGIVLGSHRQIAKSEADAWARYHSCLCYLETSAKENRNVSQAFQQLATCIASVANPGAKHAGRILGPGGRLLVEEEKQQKRQCCAN: not soluble
SNAMKIAVINGGTRSGGNTDVLAEKAVQGFDAEHIYLQKYPIQPIEDLRHAQGGFRPVQDDYDSIIERILQCHILIFATPIYWFGMSGTLKLFIDRWSQTLRDPRFPDFKQQMSVKQAYVIAVGGDNPKIKGLPLIQQFEHIFHFMGMSFKGYVLGEGNRPGDILRDHQALSAASRLLKRSDAI: soluble

**Query** Fill in: soluble on expression in E. coli of "MAHHHHHHMRKKMKTLHLTGKKNFLFQNMQLRLYKEAPPKVFNKKSSHSSLWIQRQITDRYVLKAKNDNYRSRAAYKLIELDNKYMFLKKNKTILDIGCYPGSWCQVILERTKNYSNEIIGIDKKIMDPLPNIHFIHAEIGGAKDNPNDSNLVDVKLREILQGKKVDIILSDAAVPCVGNKIDDHMNSCELTLGITNFMEQYINMGGTYVVKMYLGSQTDNLKTYLKTIFQFVNTTKPKASRRESREIYLVCRNFLGRKKIGEDVQVKGAFSLKEGYY" is ___
**Result** not soluble

**Query** Item under review: "MGHHHHHHGGHMSLSPVLTQHVSQPITLDEQTQKMKRHLLQDIRRSAYVYRVDCGGCNACEIEIFAAITPVFDAERFGIKVVSSPRHADILLFTGAVTRAMRMPALRAYESAPDHKICVSYGACGVGGGIFHDLYSVWGGSDTIVPIDVWIPGCPPTPAATIHGFAVALGLLQQKIHAVDYRDPTGVTMQPLWPQIPPSQRIAIEREARRLAGYRQGREICDRLLRHLSDDPTGNRVNTWLRDADDPRLNSIVQQLFRVLRGLHDEGGS" . Reported soluble on expression in E. coli?
**Result** soluble

**Query** Form field: reported soluble on expression in E. coli of "MAPITVGDVVPDGTISFFDENDQLQTVSVHSIAAADGFLDFDLRIGVFGFSEVSMSHVPGFIGKAEELKSKGIDEIICFSVNDPFVMKAWGKTYQENKHVKFVADGSGEYTHLLGLELDLKDKGLGIRSRRFALLLDNLKVTVANVENGGEFTVSSAEDILKALLEHHHHHH"
**Result** not soluble

Numbers sourced from the DeepSol protein solubility set.
